Provide the reported IC50 (µM), VQIINK Inhibition (ThT) of each item.
# Test System: T1, Ac-VQIINK-NH2
# T1 peptide: Ac-VQIINK-NH2
# Protocol Notes: cell-based or functional assay
Show the value, then the unit it is measured in.

Please review the following examples before continuing.
RIRVWIF
2.8 µM
WRIWIRLW
3.97 µM
IWIRYW
5.43 µM
WRIRARW
4.07 µM
WWIRIRYWK
1.89 µM

// input: 7 binders below; output: IC50 (µM), VQIINK Inhibition (ThT) for each
1. RIRLWIW
2. WRIRWRYW
3. RIWLRLW
4. RIWIRVW
5. ERIRIRW
6. WIRIRYW
7. WRARARW

Response:
["4.63 µM", "3.46 µM", "2.01 µM", "2.14 µM", "5.98 µM", "6.02 µM", "29.1 µM"]

// input: 5 binders below; output: IC50 (µM), VQIINK Inhibition (ThT) for each
1. WRIWLWYR
2. RRIWIRYW
3. WKVQVRLW
4. RIRIRWW
5. IRLIVW

Response:
["2.7 µM", "5.61 µM", "1.35 µM", "10.2 µM", "3.01 µM"]
